system: DMS 114 small cell lung; experiment: NCI tumour cell line growth inhibition, 48 h
measuredProperty: TGI

compound	result
COc1ccc(NC(=O)C(=O)Cc2ccc([N+](=O)[O-])c([N+](=O)[O-])c2CC(=O)C(=O)Nc2ccc(OC)cc2OC)c(OC)c1	> 100 µM
COc1ccc(C(=O)C(C(=O)C(=O)NCCCNC(=O)C(=O)C(C(=O)c2ccc(OC)cc2)c2ccc(OC)cc2)c2ccc(OC)cc2)cc1 (stereo not drawn)	> 100 µM
Cc1ccc(NC(=O)C2C3CCC(O3)C2C(=O)O)cc1 (stereo not drawn)	> 59.8 µM

---

# TGI values compiled below
system: SR leukemia; experiment: NCI tumour cell line growth inhibition, 48 h
measuredProperty: TGI

molecule	measuredProperty	result
COc1ccc2[nH]c3c(c2c1)CC(=O)N1CCC[C@H](C1)CC31OCCCO1	TGI	> 100 µM
CNC(=O)CNC(=O)N(C[C@@H]1CCCN1C(=O)[C@H](CC(C)C)NC(=O)OC(C)(C)C)C(C)C	TGI	> 100 µM
Cc1[nH]c2nccn2c(=O)c1CCO	TGI	> 10 µM
COc1cccc(CCNc2c(C#N)c3n(c4ccccc4[n+]3C)c3ncccc23)c1	TGI	> 100 µM
Cc1c(C(N)=O)sc2nc(C)n(/N=c3\scc(-c4ccccc4)n3Cc3ccccc3)c(=O)c12	TGI	> 100 µM
C(=N\NC1=NCCN1)/c1ccc2ccccc2c1	TGI	> 100 µM
COc1ccc2c(c1)[n+]([O-])c(-c1ccccc1Cl)c(N)[n+]2[O-]	TGI	> 100 µM
CSc1ncc2c(n1)-c1ccccc1OC2	TGI	> 100 µM
O=C1Cc2cc(CCN3CCNCC3)c(Cl)cc2N1	TGI	> 100 µM
CN1CCN(c2ccc(NC3=CC(=O)c4ncncc4C3=O)cc2)CC1	TGI	> 100 µM
CC#CCCCC1(C)CCNC1=S (configuration not stated)	TGI	> 10 µM
NC1=Nc2ccccc2Sc2cccc(F)c21	TGI	> 100 µM
